Experimental readout: melting point

>>> value_observed("COc1cc(C)nc(NC(=O)NS(=O)(=O)c2ccccc2OC(F)(F)F)n1")
"162 °C"
>>> value_observed("COc1ccc(N2C(=O)C(N=[N+]=[N-])C2c2ccc(C(=O)O)cc2)cc1 (stereo unspecified)")
"190 °C"
>>> value_observed("Cc1ccc(-c2nc(Cl)cc(Cl)n2)cc1")
"84 to 85 °C"
>>> value_observed("CN1C(=O)C2(COc3cc4c(cc32)OCCO4)c2c(NC(=O)NC3CCCCC3)cccc21 (stereo unspecified)")
"175 to 177 °C"
>>> value_observed("CCc1ccc(Br)c(CC)c1-n1cncc1C(=O)O")
"224 to 227 °C"
>>> value_observed("Oc1ccc2c(c1)C13CCN(CC4CC4)C(C2)C1OCOC3 (stereo unspecified)")
"193 to 196 °C"
>>> value_observed("CCCCCCCCCCCCCCCCCCOc1cccc2c(O)cccc12")
"90 to 92 °C"
>>> value_observed("CCn1nc(C(=O)NC2CN(C)CCN(C(=O)c3ccccc3)C2)c2ccccc21 (stereo unspecified)")
"100 to 103 °C"
>>> value_observed("N#Cc1ccc(CN2CCc3ccc(C(=O)CCCC4CCN(Cc5ccccc5Cl)CC4)cc3CC2)cc1")
"118 to 119 °C"
>>> value_observed("COc1cc2c(cc1C(C)(C)c1ccccc1)OCO2")
"75 to 76 °C"
>>> value_observed("O=C1C=C(c2c[nH]c3ccc(Br)cc23)C(=O)N1")
"268 °C"
>>> value_observed("Cc1oncc1C(=O)N1CCN(c2ccc(NC(=O)c3cnn(-c4ccc(F)cc4)c3C)cc2C#N)CC1")
"208 °C"
>>> value_observed("O=C(NCC1CC2CCC1C2)n1cc(F)c(=O)[nH]c1=O (stereo unspecified)")
"165 to 166 °C"
>>> value_observed("COC(=O)CCc1nc(CCc2ccc(CC(=O)OC)cc2)ccc1O")
"90 to 91 °C"
>>> value_observed("Cc1ccc(-c2cc(F)c3c(c2)CC(CN)O3)cc1 (stereo unspecified)")
"> 250 °C"
>>> value_observed("C[C@@H](n1cnc2cc(-c3ccc(C#N)cc3)sc2c1=O)[C@](O)(Cn1cncn1)c1ccc(F)cc1F")
"231 to 232 °C"
>>> value_observed("O=C(c1ccc(Cl)cc1Cl)C1(n2cncn2)CC1")
"55 to 56 °C"
>>> value_observed("Cc1ccc(C)c(Cc2c3ccc(C(C)(C)C)cc3c(Cc3cc(C)ccc3C)c3ccc(C(C)(C)C)cc23)c1")
"273 to 275 °C"
>>> value_observed("COC(=O)C1CCCn2c(=O)n(CSC(C)=O)c(=O)n21 (stereo unspecified)")
"100 to 102 °C"
>>> value_observed("COc1cc(C(=O)NC2CC(C)(C)N(C)C(C)(C)C2)ccc1-c1cc2cc(Cl)c(Cl)cc2[nH]1")
"260 °C"
>>> value_observed("COC(=O)NN=Cc1nc(-c2cccc(C(F)(F)F)c2)[nH]c1C")
"251 to 252 °C"
